- Assay explanation: Solubility testing of peptides at different pH
- Format: physicochemical
- Study conditions: 50 mM HCl buffer; 50 mM HCl pH 1.2; target concentration 1 mg/ml; 2 hours agitation; read-out: Solubility Buffer pH 1.2
Positions of bridges follow the written chain, without caps; N, C: chain ends. Non-standard residues stand in square brackets, D forms with d. Residues, ends and D or L forms follow the SMILES beside them. *: point of attachment. 2Nal = N[C@@H](Cc1ccc2ccccc2c1)C(=O)O; αMeL = CC(C)C[C@](C)(N)C(=O)O; Me2NCH2CH2 = CN(C)CC*; Ava = NCCCCC(=O)O
Value type: solubility at 2 h

In: Which solubility at 2 h value belongs to CC(C)C[C@]1(C)NC(=O)[C@H](Cc2ccc3ccccc3c2)NC(=O)[C@H](Cc2ccc(OCCN(C)C)cc2)NC(=O)[C@@H]2CSSC[C@H](NC(=O)CCCCNC(=O)CC[C@@H](C(=O)N[C@@H](CC(N)=O)C(=O)N[C@@H](CC(N)=O)C(N)=O)NC1=O)C(=O)N[C@@H](CC(N)=O)C(=O)N[C@@H]([C@@H](C)O)C(=O)N[C@@H](Cc1c[nH]c3ccccc13)C(=O)N[C@@H](CCC(N)=O)C(=O)N2 [compound 27] ([Ava]CNTWQCY(Me2NCH2CH2)[2Nal][αMeL]ENN-NH2; disulfide 2-7; lactam N-11) ?
Out: ≥ 890 µg/mL
